Every entry's value here was drawn from patent US20220332804A1.

- systemUnderTest: T1, mouse C2 (mouse, UniProt P21180 19-760, limits assumed)
- T1 sequence (looked up): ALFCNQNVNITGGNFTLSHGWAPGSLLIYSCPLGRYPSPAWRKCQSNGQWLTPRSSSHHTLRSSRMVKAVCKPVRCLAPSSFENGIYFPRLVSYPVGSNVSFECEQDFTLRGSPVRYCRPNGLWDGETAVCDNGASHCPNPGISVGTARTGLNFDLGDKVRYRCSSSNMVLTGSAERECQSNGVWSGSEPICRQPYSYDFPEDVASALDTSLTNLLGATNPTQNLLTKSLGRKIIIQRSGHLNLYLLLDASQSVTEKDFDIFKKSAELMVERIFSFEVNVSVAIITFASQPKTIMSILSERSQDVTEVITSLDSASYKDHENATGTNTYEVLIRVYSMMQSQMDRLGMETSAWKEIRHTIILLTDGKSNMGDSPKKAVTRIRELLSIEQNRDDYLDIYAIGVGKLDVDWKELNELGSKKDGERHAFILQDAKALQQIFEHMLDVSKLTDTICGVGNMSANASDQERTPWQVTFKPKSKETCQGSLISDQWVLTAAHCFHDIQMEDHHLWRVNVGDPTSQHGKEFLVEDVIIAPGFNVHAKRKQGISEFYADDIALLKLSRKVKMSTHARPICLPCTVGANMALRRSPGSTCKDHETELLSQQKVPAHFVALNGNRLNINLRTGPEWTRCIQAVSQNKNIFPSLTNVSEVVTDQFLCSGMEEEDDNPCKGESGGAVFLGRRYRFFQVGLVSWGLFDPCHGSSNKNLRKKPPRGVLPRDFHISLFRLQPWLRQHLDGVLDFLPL
- experimentDescription: SPR, mouse C2, pH 7.3; VWB = very weak binding, KD not determined
parameterMeasured: binding result

>  <binder>
RF16-191G (antibody, V domains shown) VH: EVQLLESGGGLVQPGGSLRLSCAASGFTFSKYWMGWVRQAPGKGLEWVSSIYSSGGWTYYADSVKGRFTISRDNSKNTLYLQMNSLRAEDTAVYYCARRPRSFSGSYYRAFDIWGQGTMVTVSS VL: DIQMTQSPSSLSASVGDRVTITCRASQSITDYLNWYQQKPGKAPKLLIYAASSLQSGVPSRFSGSGSGTDFTLTISSLQPEDFATYYCQQSYSSSITFGQGTRLDLKR

>  <result>
binds

$$$$
>  <binder>
RF16-242G (antibody, V domains shown, Germlined version of RF16-242) VH: EVQLVQSGAEVKKPGESLKISCKGSGYSFTSYWIGWVRQMPGKGLEWMGIIYPGDSDTRYSPSFQGQVTISADKSISTAYLQWSSLKASDTAMYYCARRGHYGDYFDYWGQGTLVTVSS VL: SYELTQPPSVSVSPGQTARITCSGDALPKKYAYWYQQKSGQAPVLVIYEDRRRPSGIPERFSGSSSGTMATLTISGAQVEDEADYYCYSRDRAGNQRVFGGGTQLTVLG

>  <result>
binds

$$$$
>  <binder>
RF16-214G (antibody, V domains shown) VH: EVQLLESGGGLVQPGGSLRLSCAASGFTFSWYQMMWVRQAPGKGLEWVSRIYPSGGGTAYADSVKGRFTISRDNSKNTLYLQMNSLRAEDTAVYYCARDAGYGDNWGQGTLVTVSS VL: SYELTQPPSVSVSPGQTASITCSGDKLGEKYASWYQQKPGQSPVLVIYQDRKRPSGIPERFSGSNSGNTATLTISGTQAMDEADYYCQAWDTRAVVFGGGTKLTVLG

>  <result>
binds

$$$$
